# Test system: U2OS
# test details: Multiplex assay against U2OS
# Format: toxicity, cell-based
# condition set: human, 12 h, 1 µM, compound concentration 1 uM, replicate 2
Non-standard residues stand in square brackets, D forms with d. Residues, ends and D or L forms follow the SMILES beside them.
Please respond with reported Population Apoptotic (%) for every item in the list.
Note to self: number, then unit, no commentary.

Q) Reported Population Apoptotic (%) for U2OS, given `Nc1nc(-c2ccco2)c2cnn(Cc3ccccc3F)c2n1` ?
A) 92%

Q) Item `CSc1nc(NC2CCCC2)c([N+](=O)[O-])c(NC2CCCC2)n1` with U2OS - Population Apoptotic (%)?
A) 80%

Q) Given the entry `C[C@@H]1CC(=O)Nc2cccc(-c3ccc4c(c3)c(-c3cnn(C)c3)nn4C)c2N1` , what Population Apoptotic (%) was observed with U2OS?
A) 88%

Q) Short answer please: Population Apoptotic (%), U2OS, entry `C[C@H](NC(=O)CNC(=O)c1cccc(Cl)c1)c1ccccc1`
A) 71%

Q) What measured Population Apoptotic (%) is associated with CN1C[C@H](C(=O)N[C@]2(C)O[C@@]3(O)[C@@H]4CCCN4C(=O)[C@H](Cc4ccccc4)N3C2=O)C[C@@H]2c3cccc4[nH]cc(c34)C[C@H]21.CS(=O)(=O)O [DIHYDROERGOTAMINE MESYLATE] on U2OS?
A) 84%

Q) Report Population Apoptotic (%) for `CC(C)(O)C(=O)N1CCN(c2ccc(C(F)(F)F)c(C3=C(c4c[nH]c5ccccc45)C(=O)NC3=O)c2)CC1` tested on U2OS.
A) 92%

Q) Lab request: please report Population Apoptotic (%) under test system U2OS for `COCCn1c(C)c(C)s/c1=N\C(=O)C1C(C)(C)C1(C)C`
A) 71%

Q) What reported Population Apoptotic (%) corresponds to O=C(NCCNCC(O)COc1ccc(O)cc1)N1CCOCC1.O=C(NCCNCC(O)COc1ccc(O)cc1)N1CCOCC1.O=C(O)/C=C/C(=O)O (stereo not given) [XAMOTEROL FUMARATE] on U2OS?
A) 83%

Q) Enter reported Population Apoptotic (%) observed with U2OS for `Cc1c(Cc2ccc3ccccc3n2)c2cc(F)ccc2n1CC(=O)O`
A) 83%

Q) Quick check: Population Apoptotic (%) on U2OS, item `CCCCC[C@H](O)/C=C/[C@H]1[C@H](O)CC(=O)[C@@H]1CCCCCCC(=O)O` ?
A) 77%

Q) Can you look up Population Apoptotic (%) on U2OS for `COc1cc2nc(N3CCN(C(=O)COc4c(OC)cccc4C(C)C)CC3)nc(N)c2cc1OC.Cl.Cl` ?
A) 33%

Q) # value lookup — system U2OS, readout Population Apoptotic (%), item `CCCCCCNC(=O)Nc1ccc(S(=O)(=O)Nc2ccc(CCNC[C@H](O)COc3ccc(O)cc3)cc2)cc1`
A) 100%

Q) Value wanted: Population Apoptotic (%) (U2OS) of entry `COc1cc(OC2CCN(C(C)=O)CC2)ccc1C(=O)N1CCC(N2C(=O)OCc3ccccc32)CC1`
A) 66%

Q) Give U2OS Population Apoptotic (%) for CC(C)C[C@@H]1NC(=O)[C@@H](C(C)C)NC(=O)[C@@H]2CCCN2C(=O)[C@@H](CC(=O)O)NC(=O)[C@@H](Cc2c[nH]c3ccccc23)NC1=O [BQ-123] (cyclo(L[dW][dD]P[dV]))
A) 83%

Q) Look up Population Apoptotic (%) with U2OS for this compound: Cl.Cl.OCCOCCN1CCN(C(c2ccccc2)c2ccc(Cl)cc2)CC1 (stereo not given) [HYDROXYZINE HYDROCHLORIDE]
A) 80%

Q) Item: CCn1c(-c2nc3cc(C(=O)N4CCCC(N)C4)ccc3n2C)cc2ccccc21.Cl (stereo not given) Test system: U2OS Read-out: Population Apoptotic (%) Value: ?
A) 100%

Q) Enter reported Population Apoptotic (%) observed with U2OS for CCC(=O)OCC(=O)[C@@]1(OC(=O)CC)[C@@H](C)C[C@H]2[C@@H]3CCC4=CC(=O)C=C[C@]4(C)[C@@]3(Cl)[C@@H](O)C[C@@]21C [BECLOMETHASONE DIPROPIONATE]
A) 71%

Q) // lookup Population Apoptotic (%) | system=U2OS | key= O=C(O)CCC/C=C\CC1C(O)CC(O)C1/C=C/C(O)COc1cccc(Cl)c1 (stereo not given)
A) 75%

Q) Give recorded Population Apoptotic (%) with U2OS for the following compound: `C=CCN1C[C@H](C(=O)N(CCCN(C)C)C(=O)NCC)C[C@@H]2c3cccc4[nH]cc(c34)C[C@H]21`
A) 57%

Q) Request: Population Apoptotic (%), test system U2OS, entry COCCCN1CCC(NC(=O)c2cc(Cl)c(N)c3c2OCC3)CC1 [PRUCALOPRIDE]
A) 87%
